Target: HEK-293 cells transfected with dox-inducible human wild type FGFR3 (Homo sapiens (Human), UniProt P22607)
Sequence (P22607 23-806): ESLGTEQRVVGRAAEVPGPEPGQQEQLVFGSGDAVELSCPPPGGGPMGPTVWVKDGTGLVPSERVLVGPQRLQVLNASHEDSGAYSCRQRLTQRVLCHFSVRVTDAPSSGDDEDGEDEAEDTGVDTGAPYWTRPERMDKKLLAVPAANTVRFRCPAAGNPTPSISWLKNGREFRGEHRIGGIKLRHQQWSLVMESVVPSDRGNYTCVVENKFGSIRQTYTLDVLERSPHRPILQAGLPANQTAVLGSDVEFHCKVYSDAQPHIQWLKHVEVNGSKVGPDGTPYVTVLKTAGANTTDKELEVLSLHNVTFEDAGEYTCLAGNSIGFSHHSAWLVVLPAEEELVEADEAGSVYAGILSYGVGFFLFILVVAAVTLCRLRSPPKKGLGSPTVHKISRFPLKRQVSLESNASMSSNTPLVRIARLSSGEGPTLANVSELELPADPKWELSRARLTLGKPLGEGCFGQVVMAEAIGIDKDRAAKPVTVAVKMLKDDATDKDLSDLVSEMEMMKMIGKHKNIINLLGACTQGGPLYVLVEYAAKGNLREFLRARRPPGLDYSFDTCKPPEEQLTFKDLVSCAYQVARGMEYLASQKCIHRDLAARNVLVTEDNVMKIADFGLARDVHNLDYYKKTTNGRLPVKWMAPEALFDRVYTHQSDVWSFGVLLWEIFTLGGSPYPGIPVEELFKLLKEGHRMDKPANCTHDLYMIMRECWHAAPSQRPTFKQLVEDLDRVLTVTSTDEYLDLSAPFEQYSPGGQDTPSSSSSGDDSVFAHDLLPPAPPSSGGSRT
Test: FGFR3 pERK cell assay
Assay type: cell-based
Details: HEK-293 dox-inducible FGFR3, 1 hour compound, 100 ng/ml FGF-acidic; maximum concentration 5 μM
pIC50: −log10 of the molar value.
endpoint-label: pIC50

Below are worked cases with known answers.
Request: Any idea what its pIC50 is? The compound is "C#CC(=O)N1CC(C(=O)N2CCC(n3cc(-c4cc(OC)c5c(C#N)cnn5c4)cn3)CC2)C1"
Result: 7.80

Request: Also check "C=CC(=O)N1CC(CN2CCC(n3ncc(-c4cc(OC)c5c(C#N)cnn5c4)c3C)CC2)(OC)C1"
Result: 7.82

Request: Also check C=CC(=O)N1CC(C(=O)N2CCC(n3cc(-c4cc(OC)c5c(C#N)cnn5c4)cn3)CC2)C1(C)C (stereo not shown)
Result: 7.05

Request: Also check "C=CC(=O)N1CC(C(=O)N2C[C@@H]3C[C@H]2CN3c2ccc(-c3cc(OC)c4c(C#N)cnn4c3)cn2)C1"
Result: 6.61

Request: Also check "COc1cc(-c2cnn(C3CCN(C(=O)C4(C)CN(C(=O)/C=C/CN(C)C)C4)CC3)c2C)cn2ncc(C#N)c12"
Result: 5.94

(P) C=CC(=O)N1CC(C#N)(C(=O)N2CCC(n3cc(-c4cc(OC)c5c(C#N)cnn5c4)cn3)CC2)C1
(Q) C=CS(=O)(=O)Nc1cccc(C(=O)N2CCC(n3cc(-c4cc(OC)c5c(C#N)cnn5c4)cn3)CC2)c1
Request: // which entry reports the smaller pIC50, P or Q ? Give the label under which the chosen entry appears.
Result: Q
